From: PubChem BioAssay

test: stimulators of nuclear beta-catenin in C2C12, primary screen, imaging, WNT3A-conditioned medium, mouse C2C12, NPC library (AID 1117326); conditions: stimulation, at 2 µM, stronger effect = higher value; note: reference of the scale not given here
measurement kind: nuclear beta-catenin stimulation (%)
Respond numerically; units are % and should not be typed.

Exam item: Reported nuclear beta-catenin stimulation, compound Oc1ccc(Cl)cc1 : ____
Marked response: 0.5

Exam item: Then what about the compound c1ccc2c(c1)sc1ccccc12 ?
Marked response: 0.9

Exam item: Then what about the compound C[N+](C)(C)CCOC(=O)C(O)(c1ccccc1)c1ccccc1 ?
Marked response: -0.5

Exam item: Then what about the compound CCOP(=S)(OCC)Oc1cc(C)nc(C(C)C)n1 ?
Marked response: 0.1

Exam item: Then what about the compound CCC1(c2cccc(O)c2)CCCCN(C)C1 (stereo not drawn) ?
Marked response: -0.3

Exam item: Then what about the compound C[C@@H]1CC[C@H]2[C@@H](C)C(=O)O[C@@H]3O[C@@]4(C)CC[C@@H]1[C@]32OO4 ?
Marked response: 12.4

Exam item: Then what about the compound CC(Cc1ccccc1)NCc1ccccc1Cl (stereo not drawn) ?
Marked response: 0

Exam item: Then what about the compound Clc1cccc(N2CCNCC2)c1 ?
Marked response: 0.1

Exam item: Then what about the compound CC1=C(C(=O)O)N2C(=O)[C@@H](N)[C@H]2SC1 ?
Marked response: 0.3

Exam item: Then what about the compound Clc1ccc(C(c2ccc(Cl)cc2)C(Cl)(Cl)Cl)cc1 ?
Marked response: -0.7

Exam item: Then what about the compound COc1ccc2c(C(=O)c3ccc(Cl)cc3)c(C)n(CC(=O)O)c2c1 ?
Marked response: -0.8

Exam item: Then what about the compound Cn1c(CCCC(=O)O)nc2cc(N(CCCl)CCCl)ccc21 ?
Marked response: 0.9

Exam item: Then what about the compound O=C(CCCN1CCC(n2c(=O)[nH]c3ccccc32)CC1)c1ccc(F)cc1 ?
Marked response: 3

Exam item: Then what about the compound Clc1ccc(COC(Cn2ccnc2)c2ccc(Cl)cc2Cl)cc1 (stereo not drawn) ?
Marked response: 4.8

Exam item: Then what about the compound CCCCc1ccc(C(=O)O)nc1 ?
Marked response: 2.6

Exam item: Then what about the compound CCOC(=O)CC(SP(=S)(OC)OC)C(=O)OCC (stereo not drawn) ?
Marked response: -0.1

Exam item: Then what about the compound [N-]=[N+]=CC(=O)OC[C@H](N)C(=O)O ?
Marked response: -2.4

Exam item: Then what about the compound CCOP(=S)(OCC)Oc1ccc2c(C)c(Cl)c(=O)oc2c1 ?
Marked response: 1.6
